# assay system: Aurora-A (Homo sapiens, UniProt O14965)
# Construct: made in house; host or cells: Sf9 insect cells, baculovirus
# Sequence (O14965 whole entry): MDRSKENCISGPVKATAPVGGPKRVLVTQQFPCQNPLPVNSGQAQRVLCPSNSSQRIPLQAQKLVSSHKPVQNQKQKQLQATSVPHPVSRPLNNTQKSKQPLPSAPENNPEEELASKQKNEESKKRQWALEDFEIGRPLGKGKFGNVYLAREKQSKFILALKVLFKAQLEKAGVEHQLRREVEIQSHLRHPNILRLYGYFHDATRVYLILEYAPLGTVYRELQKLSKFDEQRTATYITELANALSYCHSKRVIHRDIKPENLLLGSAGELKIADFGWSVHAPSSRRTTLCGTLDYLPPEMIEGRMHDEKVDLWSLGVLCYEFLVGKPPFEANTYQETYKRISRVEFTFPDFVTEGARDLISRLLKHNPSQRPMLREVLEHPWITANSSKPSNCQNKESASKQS
# assay comment: Radiometric protein kinase assay (33PanQinase Activity Assay)
# Type: biochemical
pIC50: −log10 of the molar value.
property: pIC50

Record CC(C)n1c2c(c3c1-c1ccccc1C3=O)C(=O)CCC2 , field pIC50: < 5.00

----------
# assay system: CDK4/CycD1 (Homo sapiens, UniProt P11802)
# Construct: made in house; host or cells: Sf9 insect cells, baculovirus
# Sequence (P11802 whole entry): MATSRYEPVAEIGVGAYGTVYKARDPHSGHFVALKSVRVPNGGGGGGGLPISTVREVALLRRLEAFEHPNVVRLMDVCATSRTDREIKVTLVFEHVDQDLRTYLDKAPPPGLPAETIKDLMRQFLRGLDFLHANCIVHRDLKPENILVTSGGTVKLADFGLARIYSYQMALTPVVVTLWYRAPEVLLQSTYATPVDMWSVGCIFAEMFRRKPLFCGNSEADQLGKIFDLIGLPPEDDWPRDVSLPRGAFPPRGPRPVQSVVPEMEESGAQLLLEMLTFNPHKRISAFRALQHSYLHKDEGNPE
# Sequence (P24385 whole entry partner): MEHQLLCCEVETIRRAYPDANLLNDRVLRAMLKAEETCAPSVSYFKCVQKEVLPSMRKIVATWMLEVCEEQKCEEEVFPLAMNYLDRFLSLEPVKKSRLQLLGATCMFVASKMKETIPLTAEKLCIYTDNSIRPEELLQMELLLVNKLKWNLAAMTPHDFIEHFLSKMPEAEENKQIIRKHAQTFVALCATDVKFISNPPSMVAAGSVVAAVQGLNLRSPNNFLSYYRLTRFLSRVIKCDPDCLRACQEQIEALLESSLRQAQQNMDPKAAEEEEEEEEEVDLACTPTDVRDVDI
# assay comment: Radiometric protein kinase assay (33PanQinase Activity Assay)
# Format: biochemical
property: IC50

Just so you know, measured IC50 for CC(C)n1c2c(c3c1-c1ccccc1C3=O)C(=O)CCC2 came out at > 10 µM
